The reader will find reported RANK (Kallikrein binding) values listed item by item below.
target: T1, human plasma Kallikrein (human, UniProt P03952 20-638); test: phage binding assay
T1 construct: also called hPK; human PK
T1 sequence (P03952 20-638 limits assumed): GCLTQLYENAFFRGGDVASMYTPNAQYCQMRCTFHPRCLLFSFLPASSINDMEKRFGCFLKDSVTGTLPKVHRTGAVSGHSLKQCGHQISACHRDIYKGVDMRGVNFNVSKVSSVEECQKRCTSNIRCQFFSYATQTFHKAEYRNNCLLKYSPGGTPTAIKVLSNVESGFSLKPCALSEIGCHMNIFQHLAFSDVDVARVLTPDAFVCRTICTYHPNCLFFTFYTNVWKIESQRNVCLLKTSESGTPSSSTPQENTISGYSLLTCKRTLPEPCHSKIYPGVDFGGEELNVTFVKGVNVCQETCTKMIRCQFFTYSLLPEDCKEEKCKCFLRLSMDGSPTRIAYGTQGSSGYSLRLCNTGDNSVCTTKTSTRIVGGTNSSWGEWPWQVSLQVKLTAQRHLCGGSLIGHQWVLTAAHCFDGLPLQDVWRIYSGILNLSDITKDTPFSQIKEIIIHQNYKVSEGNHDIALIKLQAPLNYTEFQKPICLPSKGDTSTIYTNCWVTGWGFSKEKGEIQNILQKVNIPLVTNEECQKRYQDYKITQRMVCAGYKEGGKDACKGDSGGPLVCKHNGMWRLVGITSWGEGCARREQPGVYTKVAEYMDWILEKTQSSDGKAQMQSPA
Numbered stars: 1 amine (or outer) side, 2 acyl side, 3 side chain; on linkers, the order of the positions; unused ones are H or OH. Bridge positions count the residues as written; N and C are the ends. Ends that are not written are not given here. TBMB = c1c(C[*:1])cc(C[*:3])cc1C[*:2]
Please respond with just the number, no unit label.

Illustrative cases are given below, each with its answer.
INSERT INTO results (binder, value) VALUES
  ('CSLPIRCTHQDLC (linker 1-7-13 via TBMB, on phage)', 30),
  ('CSYPYRCTHQDLC (linker 1-7-13 via TBMB, on phage)', 26);

[ask] Reported RANK (Kallikrein binding), binder CSWPYKCTHQDLC (linker 1-7-13 via TBMB, on phage) : ____
[reply] 28

[ask] Reported RANK (Kallikrein binding), binder CSFPFKCTHQDLC (linker 1-7-13 via TBMB (inferred), on phage) : ____
[reply] 6

[ask] Reported RANK (Kallikrein binding), binder CSFPIRCTHQDLC (linker 1-7-13 via TBMB (inferred), on phage) : ____
[reply] 15

[ask] Reported RANK (Kallikrein binding), binder CSHRRWCTHQDLC (linker 1-7-13 via TBMB (inferred), on phage) : ____
[reply] 41
